Tested on: recombinant human anti-SARS-CoV antibody 03-018
Format: binding
Parameters: unit not given here
value-kind: Binding of antibody 03-018 to looped/cyclic peptides of the N protein of SARS-CoV Urbani

Specify reported Binding of antibody 03-018 to looped/cyclic peptides of the N protein of SARS-CoV Urbani for the sequence shown: DQDLIRQGTDYKHWP
0.2

Specify reported Binding of antibody 03-018 to looped/cyclic peptides of the N protein of SARS-CoV Urbani for the sequence shown: LLLDRLNQLESKVSG
0.2

Specify reported Binding of antibody 03-018 to looped/cyclic peptides of the N protein of SARS-CoV Urbani for the sequence shown: DGKMKELSPRWYFYY
0.2

Specify reported Binding of antibody 03-018 to looped/cyclic peptides of the N protein of SARS-CoV Urbani for the sequence shown: GDQDLIRQGTDYKHW
0.2

Specify reported Binding of antibody 03-018 to looped/cyclic peptides of the N protein of SARS-CoV Urbani for the sequence shown: GALNTPKDHIGTRNP
0.2

Specify reported Binding of antibody 03-018 to looped/cyclic peptides of the N protein of SARS-CoV Urbani for the sequence shown: GLPNNTASWFTALTQ
0.3

Specify reported Binding of antibody 03-018 to looped/cyclic peptides of the N protein of SARS-CoV Urbani for the sequence shown: RLNQLESKVSGKGQQ
0.2

Specify reported Binding of antibody 03-018 to looped/cyclic peptides of the N protein of SARS-CoV Urbani for the sequence shown: ARMASGGGETALALL
0.3

Specify reported Binding of antibody 03-018 to looped/cyclic peptides of the N protein of SARS-CoV Urbani for the sequence shown: PQRQKKQPTVTLLPA
0.3

Specify reported Binding of antibody 03-018 to looped/cyclic peptides of the N protein of SARS-CoV Urbani for the sequence shown: RGGSQASSRSSSRSR
0.1

Specify reported Binding of antibody 03-018 to looped/cyclic peptides of the N protein of SARS-CoV Urbani for the sequence shown: DFSRQLQNSMSGASA
0.2

Specify reported Binding of antibody 03-018 to looped/cyclic peptides of the N protein of SARS-CoV Urbani for the sequence shown: AEASKKPRQKRTATK
0.2

Specify reported Binding of antibody 03-018 to looped/cyclic peptides of the N protein of SARS-CoV Urbani for the sequence shown: SASAFFGMSRIGMEV
0.2

Specify reported Binding of antibody 03-018 to looped/cyclic peptides of the N protein of SARS-CoV Urbani for the sequence shown: QFAPSASAFFGMSRI
0.3

Specify reported Binding of antibody 03-018 to looped/cyclic peptides of the N protein of SARS-CoV Urbani for the sequence shown: EELRFPRGQGVPINT
0.3

Specify reported Binding of antibody 03-018 to looped/cyclic peptides of the N protein of SARS-CoV Urbani for the sequence shown: NQLESKVSGKGQQQQ
0.3

Specify reported Binding of antibody 03-018 to looped/cyclic peptides of the N protein of SARS-CoV Urbani for the sequence shown: RQLQNSMSGASADST
0.2

Specify reported Binding of antibody 03-018 to looped/cyclic peptides of the N protein of SARS-CoV Urbani for the sequence shown: DHIGTRNPNNNAATV
0.3

Specify reported Binding of antibody 03-018 to looped/cyclic peptides of the N protein of SARS-CoV Urbani for the sequence shown: SSRSRGNSRNSTPGS
0.2

Specify reported Binding of antibody 03-018 to looped/cyclic peptides of the N protein of SARS-CoV Urbani for the sequence shown: ARPKQRRPQGLPNNT
0.2

Specify reported Binding of antibody 03-018 to looped/cyclic peptides of the N protein of SARS-CoV Urbani for the sequence shown: TLLPAADMDDFSRQL
0.1

Specify reported Binding of antibody 03-018 to looped/cyclic peptides of the N protein of SARS-CoV Urbani for the sequence shown: FGGPTDSTDNNQNGG
0.2

Specify reported Binding of antibody 03-018 to looped/cyclic peptides of the N protein of SARS-CoV Urbani for the sequence shown: SRGNSPARMASGGGE
0.2

Specify reported Binding of antibody 03-018 to looped/cyclic peptides of the N protein of SARS-CoV Urbani for the sequence shown: ESKVSGKGQQQQGQT
0.2

Specify reported Binding of antibody 03-018 to looped/cyclic peptides of the N protein of SARS-CoV Urbani for the sequence shown: QASSRSSSRSRGNSR
0.2

Specify reported Binding of antibody 03-018 to looped/cyclic peptides of the N protein of SARS-CoV Urbani for the sequence shown: RGPEQTQGNFGDQDL
0.2

Specify reported Binding of antibody 03-018 to looped/cyclic peptides of the N protein of SARS-CoV Urbani for the sequence shown: RTATKQYNVTQAFGR
0.2

Specify reported Binding of antibody 03-018 to looped/cyclic peptides of the N protein of SARS-CoV Urbani for the sequence shown: SSRGNSPARMASGGG
0.2

Specify reported Binding of antibody 03-018 to looped/cyclic peptides of the N protein of SARS-CoV Urbani for the sequence shown: AATVLQLPQGTTLPK
0.2

Specify reported Binding of antibody 03-018 to looped/cyclic peptides of the N protein of SARS-CoV Urbani for the sequence shown: PTDSTDNNQNGGRNG
0.2

Specify reported Binding of antibody 03-018 to looped/cyclic peptides of the N protein of SARS-CoV Urbani for the sequence shown: TALTQHGKEELRFPR
0.3

Specify reported Binding of antibody 03-018 to looped/cyclic peptides of the N protein of SARS-CoV Urbani for the sequence shown: DPQFKDNVILLNKHI
0.3

Specify reported Binding of antibody 03-018 to looped/cyclic peptides of the N protein of SARS-CoV Urbani for the sequence shown: TDEAQPLPQRQKKQP
0.1

Specify reported Binding of antibody 03-018 to looped/cyclic peptides of the N protein of SARS-CoV Urbani for the sequence shown: GSQASSRSSSRSRGN
0.2

Specify reported Binding of antibody 03-018 to looped/cyclic peptides of the N protein of SARS-CoV Urbani for the sequence shown: SRSSSRSRGNSRNST
0.2

Specify reported Binding of antibody 03-018 to looped/cyclic peptides of the N protein of SARS-CoV Urbani for the sequence shown: TEPKKDKKKKTDEAQ
0.2

Specify reported Binding of antibody 03-018 to looped/cyclic peptides of the N protein of SARS-CoV Urbani for the sequence shown: KSAAEASKKPRQKRT
0.1

Specify reported Binding of antibody 03-018 to looped/cyclic peptides of the N protein of SARS-CoV Urbani for the sequence shown: RNGARPKQRRPQGLP
0.3

Specify reported Binding of antibody 03-018 to looped/cyclic peptides of the N protein of SARS-CoV Urbani for the sequence shown: DAYKTFPPTEPKKDK
0.2

Specify reported Binding of antibody 03-018 to looped/cyclic peptides of the N protein of SARS-CoV Urbani for the sequence shown: GVPINTNSGPDDQIG
0.2

Specify reported Binding of antibody 03-018 to looped/cyclic peptides of the N protein of SARS-CoV Urbani for the sequence shown: AEGSRGGSQASSRSS
0.2

Specify reported Binding of antibody 03-018 to looped/cyclic peptides of the N protein of SARS-CoV Urbani for the sequence shown: ASKKPRQKRTATKQY
0.2

Specify reported Binding of antibody 03-018 to looped/cyclic peptides of the N protein of SARS-CoV Urbani for the sequence shown: QFKDNVILLNKHIDA
0.3

Specify reported Binding of antibody 03-018 to looped/cyclic peptides of the N protein of SARS-CoV Urbani for the sequence shown: QDLIRQGTDYKHWPQ
0.2

Specify reported Binding of antibody 03-018 to looped/cyclic peptides of the N protein of SARS-CoV Urbani for the sequence shown: KKSAAEASKKPRQKR
0.2

Specify reported Binding of antibody 03-018 to looped/cyclic peptides of the N protein of SARS-CoV Urbani for the sequence shown: GQGVPINTNSGPDDQ
0.2

Specify reported Binding of antibody 03-018 to looped/cyclic peptides of the N protein of SARS-CoV Urbani for the sequence shown: GQQQQGQTVTKKSAA
0.2

Specify reported Binding of antibody 03-018 to looped/cyclic peptides of the N protein of SARS-CoV Urbani for the sequence shown: RGGDGKMKELSPRWY
0.2

Specify reported Binding of antibody 03-018 to looped/cyclic peptides of the N protein of SARS-CoV Urbani for the sequence shown: GGGETALALLLLDRL
0.2

Specify reported Binding of antibody 03-018 to looped/cyclic peptides of the N protein of SARS-CoV Urbani for the sequence shown: PLPQRQKKQPTVTLL
0.3

Specify reported Binding of antibody 03-018 to looped/cyclic peptides of the N protein of SARS-CoV Urbani for the sequence shown: EASKKPRQKRTATKQ
0.3

Specify reported Binding of antibody 03-018 to looped/cyclic peptides of the N protein of SARS-CoV Urbani for the sequence shown: KDNVILLNKHIDAYK
0.2

Specify reported Binding of antibody 03-018 to looped/cyclic peptides of the N protein of SARS-CoV Urbani for the sequence shown: TQAFGRRGPEQTQGN
0.2

Specify reported Binding of antibody 03-018 to looped/cyclic peptides of the N protein of SARS-CoV Urbani for the sequence shown: SRQLQNSMSGASADS
0.2

Specify reported Binding of antibody 03-018 to looped/cyclic peptides of the N protein of SARS-CoV Urbani for the sequence shown: QPTVTLLPAADMDDF
0.2

Specify reported Binding of antibody 03-018 to looped/cyclic peptides of the N protein of SARS-CoV Urbani for the sequence shown: SRNSTPGSSRGNSPA
0.2

Specify reported Binding of antibody 03-018 to looped/cyclic peptides of the N protein of SARS-CoV Urbani for the sequence shown: KDHIGTRNPNNNAAT
0.2

Specify reported Binding of antibody 03-018 to looped/cyclic peptides of the N protein of SARS-CoV Urbani for the sequence shown: KKKKTDEAQPLPQRQ
0.2

Specify reported Binding of antibody 03-018 to looped/cyclic peptides of the N protein of SARS-CoV Urbani for the sequence shown: TKQYNVTQAFGRRGP
0.3

Specify reported Binding of antibody 03-018 to looped/cyclic peptides of the N protein of SARS-CoV Urbani for the sequence shown: AADMDDFSRQLQNSM
0.2

Specify reported Binding of antibody 03-018 to looped/cyclic peptides of the N protein of SARS-CoV Urbani for the sequence shown: RNSTPGSSRGNSPAR
0.2

Specify reported Binding of antibody 03-018 to looped/cyclic peptides of the N protein of SARS-CoV Urbani for the sequence shown: GPEQTQGNFGDQDLI
0.2

Specify reported Binding of antibody 03-018 to looped/cyclic peptides of the N protein of SARS-CoV Urbani for the sequence shown: GIVWVATEGALNTPK
0.2

Specify reported Binding of antibody 03-018 to looped/cyclic peptides of the N protein of SARS-CoV Urbani for the sequence shown: LNKHIDAYKTFPPTE
0.2

Specify reported Binding of antibody 03-018 to looped/cyclic peptides of the N protein of SARS-CoV Urbani for the sequence shown: NVTQAFGRRGPEQTQ
0.2

Specify reported Binding of antibody 03-018 to looped/cyclic peptides of the N protein of SARS-CoV Urbani for the sequence shown: KEELRFPRGQGVPIN
0.3

Specify reported Binding of antibody 03-018 to looped/cyclic peptides of the N protein of SARS-CoV Urbani for the sequence shown: ELRFPRGQGVPINTN
0.2

Specify reported Binding of antibody 03-018 to looped/cyclic peptides of the N protein of SARS-CoV Urbani for the sequence shown: NKHIDAYKTFPPTEP
0.2

Specify reported Binding of antibody 03-018 to looped/cyclic peptides of the N protein of SARS-CoV Urbani for the sequence shown: FYAEGSRGGSQASSR
0.1

Specify reported Binding of antibody 03-018 to looped/cyclic peptides of the N protein of SARS-CoV Urbani for the sequence shown: PKGFYAEGSRGGSQA
0.2

Specify reported Binding of antibody 03-018 to looped/cyclic peptides of the N protein of SARS-CoV Urbani for the sequence shown: APSASAFFGMSRIGM
0.2

Specify reported Binding of antibody 03-018 to looped/cyclic peptides of the N protein of SARS-CoV Urbani for the sequence shown: QRRPQGLPNNTASWF
0.2

Specify reported Binding of antibody 03-018 to looped/cyclic peptides of the N protein of SARS-CoV Urbani for the sequence shown: YLGTGPEASLPYGAN
0.2

Specify reported Binding of antibody 03-018 to looped/cyclic peptides of the N protein of SARS-CoV Urbani for the sequence shown: DRLNQLESKVSGKGQ
0.3

Specify reported Binding of antibody 03-018 to looped/cyclic peptides of the N protein of SARS-CoV Urbani for the sequence shown: NQNGGRNGARPKQRR
0.2
